- assay-text: Half life in Sprague-Dawley rat at 1 mg/kg, iv and po
- Assay type: ADME, organism-based
- Parameters: dose 1 mg/kg, route oral
- applied-conditions: in vivo
recorded-endpoint: half-life (h)

>  <mol-smiles>
Fc1ccc(-c2nn3c(NC4CCCC4)nccc3c2-c2ccnc(NC3CCCC3)n2)cc1

>  <recorded-endpoint>
half-life

>  <unit-of-measurement>
h

>  <measured-result>
2.5

$$$$

* * *

# key: entry, value: CC50
- assay-text: Cytotoxicity against african green monkey Vero cells
- Assay type: cell-based
- applied-conditions: chlorocebus sabaeus

>  <mol-smiles>
Oc1ccc(-c2nn3c(NC4CCCC4)nccc3c2-c2ccnc(NC3CCCC3)n2)cc1

>  <CC50>
27 µM

$$$$
>  <mol-smiles>
COCCNc1nccc2c(-c3ccnc(NC4CCCC4)n3)c(-c3cccc(Cl)c3)nn12

>  <CC50>
> 40 µM

$$$$
>  <mol-smiles>
Fc1ccc(-c2nn3c(NC4CCCC4)cc(NC4CCCC4)cc3c2-c2ccnc(NC3CCCC3)n2)cc1

>  <CC50>
> 40 µM

$$$$
>  <mol-smiles>
Fc1ccc(-c2nn3c(NC4CCCC4)nccc3c2-c2ccnc(NC3CCCC3)n2)cc1

>  <CC50>
> 40 µM

$$$$
>  <mol-smiles>
c1ccc(-c2nn3c(NC4CCCC4)nc(NC4CCCC4)nc3c2-c2ccnc(NC3CCCC3)c2)cc1

>  <CC50>
> 40 µM

$$$$
>  <mol-smiles>
COc1ccc(-c2nn3c(NC4CCCC4)ccnc3c2-c2ccnc(NC3CCCC3)n2)cc1

>  <CC50>
32 µM

$$$$
>  <mol-smiles>
c1cc(NC2CCCC2)n2nc(-c3ccc(OCC4CC4)cc3)c(-c3ccnc(NC4CCCC4)n3)c2c1

>  <CC50>
> 40 µM

$$$$
>  <mol-smiles>
Clc1cccc(-c2nn3c(NC4CCCC4)nccc3c2-c2ccnc(NC3CCCC3)n2)c1

>  <CC50>
> 40 µM

$$$$
>  <mol-smiles>
CC(C)COc1ccc(-c2nn3c(NC4CCCC4)nccc3c2-c2ccnc(NC3CCCC3)n2)cc1

>  <CC50>
> 40 µM

$$$$
>  <mol-smiles>
c1ccc(-c2nn3c(NC4CCCC4)cccc3c2-c2ccnc(NC3CCCC3)n2)cc1

>  <CC50>
> 40 µM

$$$$
>  <mol-smiles>
Fc1ccc(-c2nn3c(N4CCCCC4)nccc3c2-c2ccnc(NC3CCCC3)n2)cc1

>  <CC50>
> 40 µM

$$$$
>  <mol-smiles>
COc1ccc(-c2nn3c(NC4CCCC4)nccc3c2-c2ccnc(NC3CCCC3)n2)cc1

>  <CC50>
> 40 µM

$$$$
>  <mol-smiles>
CCCCOc1ccc(-c2nn3c(NC4CCCC4)nccc3c2-c2ccnc(NC3CCCC3)n2)cc1

>  <CC50>
> 40 µM

$$$$
>  <mol-smiles>
CCCOc1ccc(-c2nn3c(NC4CCCC4)nccc3c2-c2ccnc(NC3CCCC3)n2)cc1

>  <CC50>
> 20 µM

$$$$
>  <mol-smiles>
Fc1ccc(-c2nn3c(N4CCCC4)nccc3c2-c2ccnc(NC3CCCC3)n2)cc1

>  <CC50>
> 40 µM

$$$$
>  <mol-smiles>
COc1ccc(-c2nn3c(NC4CCCC4)cccc3c2-c2ccnc(NC3CCCC3)n2)cc1

>  <CC50>
> 100 µM

$$$$
>  <mol-smiles>
Nc1nc2c(ncn2COCCO)c(=O)[nH]1

>  <CC50>
> 200 µM

$$$$
>  <mol-smiles>
Fc1ccc(-c2nn3c(NC4CCCC4)ccnc3c2-c2ccnc(NC3CCCC3)c2)cc1

>  <CC50>
16 µM

$$$$
>  <mol-smiles>
c1ccc(-c2nn3c(NC4CCCC4)ncnc3c2-c2ccnc(NC3CCCC3)n2)cc1

>  <CC50>
> 40 µM

$$$$
>  <mol-smiles>
Clc1cccc(-c2nn3c(N4CCOCC4)nccc3c2-c2ccnc(NC3CCCC3)n2)c1

>  <CC50>
> 40 µM

$$$$
>  <mol-smiles>
Fc1ccc(-c2nn3c(NC4CCCC4)cccc3c2-c2ccnc(NC3CCCC3)n2)cc1

>  <CC50>
> 160 µM

$$$$

* * *

- assay-text: Antiviral activity against HSV1 SC16 infected in african green monkey Vero cells by hybrid capture method
- Assay type: functional, cell-based, Herpes simplex virus (type 1 / strain SC16)
- applied-conditions: Human alphaherpesvirus 1, Vero
# key: entry, value: IC50
recorded-endpoint: IC50 (nM)

>  <mol-smiles>
COCCNc1nccc2c(-c3ccnc(NC4CCCC4)n3)c(-c3cccc(Cl)c3)nn12

>  <measured-result>
300

$$$$
>  <mol-smiles>
c1cc(NC2CCCC2)n2nc(-c3ccc(OCC4CC4)cc3)c(-c3ccnc(NC4CCCC4)n3)c2c1

>  <measured-result>
170

$$$$
>  <mol-smiles>
Fc1ccc(-c2nn3c(N4CCCC4)nccc3c2-c2ccnc(NC3CCCC3)n2)cc1

>  <measured-result>
1900

$$$$
>  <mol-smiles>
c1ccc(-c2nn3c(NC4CCCC4)cccc3c2-c2ccnc(NC3CCCC3)n2)cc1

>  <measured-result>
620

$$$$
>  <mol-smiles>
Oc1ccc(-c2nn3c(NC4CCCC4)nccc3c2-c2ccnc(NC3CCCC3)n2)cc1

>  <measured-result>
4000

$$$$
>  <mol-smiles>
Nc1nc2c(ncn2COCCO)c(=O)[nH]1

>  <measured-result>
390

$$$$
>  <mol-smiles>
c1ccc(-c2nn3c(NC4CCCC4)ncnc3c2-c2ccnc(NC3CCCC3)n2)cc1

>  <measured-result>
6400

$$$$
>  <mol-smiles>
CCCCOc1ccc(-c2nn3c(NC4CCCC4)nccc3c2-c2ccnc(NC3CCCC3)n2)cc1

>  <measured-result>
470

$$$$
>  <mol-smiles>
COc1ccc(-c2nn3c(NC4CCCC4)ccnc3c2-c2ccnc(NC3CCCC3)n2)cc1

>  <measured-result>
2400

$$$$
>  <mol-smiles>
Fc1ccc(-c2nn3c(N4CCCCC4)nccc3c2-c2ccnc(NC3CCCC3)n2)cc1

>  <measured-result>
980

$$$$
>  <mol-smiles>
CC(C)COc1ccc(-c2nn3c(NC4CCCC4)nccc3c2-c2ccnc(NC3CCCC3)n2)cc1

>  <measured-result>
610

$$$$
>  <mol-smiles>
c1ccc(-c2nn3c(NC4CCCC4)ccnc3c2-c2ccnc(NC3CCCC3)c2)cc1

>  <measured-result>
300

$$$$
>  <mol-smiles>
Fc1ccc(-c2nn3c(NC4CCCC4)cccc3c2-c2ccnc(NC3CCCC3)n2)cc1

>  <measured-result>
260

$$$$
>  <mol-smiles>
CC(C)(C)Nc1nccc2c(-c3ccnc(NC4CCCC4)n3)c(-c3ccc(F)cc3)nn12

>  <measured-result>
6610

$$$$
>  <mol-smiles>
c1cc(-c2c(-c3ccc(OCC4CC4)cc3)nn3c(NC4CCCC4)nccc23)nc(NC2CCCC2)n1

>  <measured-result>
690

$$$$
>  <mol-smiles>
COc1ccc(-c2nn3c(NC4CCCC4)ccnc3c2-c2ccnc(NC3CCCC3)c2)cc1

>  <measured-result>
600

$$$$
>  <mol-smiles>
COCCOc1ccc(-c2nn3c(NC4CCCC4)nccc3c2-c2ccnc(NC3CCCC3)n2)cc1

>  <measured-result>
1120

$$$$
>  <mol-smiles>
Clc1cccc(-c2nn3c(N4CCOCC4)nccc3c2-c2ccnc(NC3CCCC3)n2)c1

>  <measured-result>
200

$$$$
>  <mol-smiles>
Fc1ccc(-c2nn3c(NC4CCCC4)ccnc3c2-c2ccnc(NC3CCCC3)c2)cc1

>  <measured-result>
1200

$$$$

* * *

- assay-text: Antiviral activity against HSV1 SC16 infected in african green monkey Vero cells by hybrid capture method
- Assay type: functional, cell-based, Herpes simplex virus (type 1 / strain SC16)
- applied-conditions: Human alphaherpesvirus 1, Vero
recorded-endpoint: IC50

>  <mol-smiles>
c1ccc(-c2nn3c(NC4CCCC4)nc(NC4CCCC4)nc3c2-c2ccnc(NC3CCCC3)c2)cc1

>  <measured-result>
120 nM

$$$$
>  <mol-smiles>
Fc1ccc(-c2nn3c(NC4CCCC4)cc(NC4CCCC4)cc3c2-c2ccnc(NC3CCCC3)n2)cc1

>  <measured-result>
240 nM

$$$$
>  <mol-smiles>
COc1ccc(-c2nn3c(NC4CCCC4)nccc3c2-c2ccnc(NC3CCCC3)n2)cc1

>  <measured-result>
280 nM

$$$$
>  <mol-smiles>
COc1ccc(-c2nn3c(NC4CCCC4)cccc3c2-c2ccnc(NC3CCCC3)n2)cc1

>  <measured-result>
220 nM

$$$$
>  <mol-smiles>
CCCOc1ccc(-c2nn3c(NC4CCCC4)nccc3c2-c2ccnc(NC3CCCC3)n2)cc1

>  <measured-result>
540 nM

$$$$
>  <mol-smiles>
Clc1cccc(-c2nn3c(NC4CCCC4)nccc3c2-c2ccnc(NC3CCCC3)n2)c1

>  <measured-result>
460 nM

$$$$
>  <mol-smiles>
Fc1ccc(-c2nn3c(NC4CCCC4)nccc3c2-c2ccnc(NC3CCCC3)n2)cc1

>  <measured-result>
170 nM

$$$$

Provenance of the data: ChEMBL document CHEMBL1156004
